Assay: small molecules captured by biotinylated probe aFSTL3 – biochemical, small-molecule microarray, fluorescence 635/667, stem cell growth factor project, primary screen (AID 1064);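 also: measures binding of the biotinylated anti-FSTL3 antibody to printed compounds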
Conditions: higher = more signal
Here the recorded composite z-score is given for each entry.

Compound | composite z-score
CN1C(=O)C2C=CC(C(O)c3c(F)cccc3Cl)N(NC(=O)OC(C)(C)C)C2C1=O (configuration not stated) | 0.171
CCN(CC)c1ccc(N2CC=CC34O[C@@H]5/C=C\CCC(C)OC(=O)C5[C@H]3C(=O)N(CCCCCO)[C@@H]4C2=O)cc1 (some centres not stated) | -0.129
C[N+](C)(C)CCCCCCNC(=O)[C@H]1C[C@H]2C(=O)N[C@@H](Cc3ccccc3)C(=O)N2[C@H]1c1cccc(OCCO)c1 | -0.429
CC(=CC1CCCCC1)[C@@H](NC(=O)c1cccnc1)c1ccc(-c2ccccc2)cc1 | 0.365
O=C1C[C@@](C(=O)NCc2ccccc2)(c2ccc([N+](=O)[O-])cc2)[C@@H](c2ccc(CO)cc2)N1CC12CC3CC(CC(C3)C1)C2 | -0.237
C=CCC(OC(C)=O)[C@@H]1[C@@H](N(Cc2cc3ccccc3o2)C(=O)Cc2ccc(OC)cc2)c2cc(OCCCO)ccc2N1C(=O)c1ccc2ccccc2c1 (some centres not stated) | 0.0894
CC(c1ccccc1)C(O)C1C=CC2C(=O)N(c3ccccc3)C(=O)C2N1Nc1ccccc1 (configuration not stated) | -0.245
C=C(CCCC)/C(=C/C[C@H](OC(C)=O)c1ccccc1OCCO)c1cnc2ccccc2c1 | -0.279
O=C1O[C@@H](c2ccccc2)[C@@H](c2ccccc2)N2[C@@H](c3ccccc3OCCO)[C@]3(C(=O)Nc4ccc(C#CC5(O)CCCCCC5)cc43)[C@@H](C(=O)N3CCN(c4ncccn4)CC3)[C@H]12 | -0.002
COC(=O)c1c(CC[C@@H](CO)NC(=O)NCCc2c[nH]c3ccccc23)oc(C(=O)Cc2ccccc2)c1C(=O)OC | -0.379
COC(=O)C[C@H]1O[C@@H](CCc2ccccc2)[C@@H](C)[C@@H]1[Si](C)(C)c1ccc(OC)cc1 | -0.136
CCOC(=O)C[C@H]1[C@H](OC(=O)c2cc3ccccc3oc2=O)[C@@H](NC(=O)CC(C)C)c2cc(OCCCO)ccc2N1C(=O)c1ccccc1 | -0.26
COCCOC(=O)N1C(=O)[C@@]2(c3ccccc31)[C@H](c1ccc(OCCO)cc1)N1[C@H](c3ccccc3)[C@H](c3ccccc3)OC(=O)[C@H]1[C@@H]2C(=O)N1CCc2cc(OC)c(OC)cc2C1 | -0.128
O=C1OCCC=C[C@H]2OC34C=CCN(c5ccc(Cl)cc5)C(=O)[C@H]3N(CCCO)C(=O)[C@@H]4C12 (some centres not stated) | 0.189
COCC(=C=CC[C@@H](O)c1ccc(OCCO)cc1)C[C@@H](O)c1ccccn1 | -0.212
CC(C)(C)OC(=O)CC[C@]1(C(=O)NCCN2CCOCC2)COC(c2ccc(OCCCO)cc2)=N1 | -0.254
C=CCOC(=O)[C@H]1[C@@H]2C(=O)O[C@@H](c3ccccc3)[C@@H](c3ccccc3)N2[C@@H](c2ccc(OCCOC(=O)[C@@H]3C[C@@H]4C(=O)N5CCC[C@H]5C(=O)N4[C@@H]3c3cccc(OCCO)c3)cc2)[C@]12C(=O)Nc1ccc(I)cc12 | -0.34
COc1ccc(C(=O)Nc2ccc(CN3C(=O)[C@]4(O[C@H](CC(=O)N5CCC[C@H]5CO)[C@@H]([Si](C)(C)c5ccc(OC)cc5)[C@@H]4C)c4ccccc43)cc2)cc1 | -0.332
C=CCC(OC(C)=O)[C@@H]1[C@@H](N(Cc2ccc(-c3cccc(C(F)(F)F)c3)o2)C(=O)Cc2ccc(OC)cc2)c2cc(OCCCO)ccc2N1C(=O)c1ccc2ccccc2c1 (some centres not stated) | 0.0929
O=C1O[C@H](c2ccccc2)[C@H](c2ccccc2)N2[C@H]1[C@@H](C(=O)NC[C@H](O)c1ccccc1)[C@]1(C(=O)Nc3ccc(C#CC4=CCCCC4)cc31)[C@H]2c1ccccc1OCCO | 0.185
O=C1C2C=CC(C(O)c3c(F)cccc3Cl)N(Nc3ccccc3F)C2C(=O)N1c1ccccc1 (configuration not stated) | 0.472
CN(C)CCCCCCNC(=O)[C@@H]1C[C@@H]2C(=O)N3CCC[C@H]3C(=O)N2[C@@H]1c1ccc(O)cc1 | 0.675
C=C[C@H](C)[C@@H](OC(=O)Nc1ccc(SC)cc1)c1ccc(O)c2ccccc12 | -0.151
CC(C)N1CC=CC23O[C@@H]4C=CCOC(=O)[C@@H]4[C@H]2C(=O)N(CCCCCO)[C@@H]3C1=O (some centres not stated) | -0.354
O=C1C2C=CC(C(O)c3ccc(F)cc3)N(Nc3ccc([N+](=O)[O-])cc3)C2C(=O)N1c1ccccc1 (configuration not stated) | 0.0759
CCN(CC)c1ccc(N2CC=CC34O[C@@H]5C=CCOC(=O)[C@@H]5[C@H]3C(=O)N(CCCCCCO)[C@@H]4C2=O)cc1 (some centres not stated) | 0.52
COCCOC(=O)N1C(=O)[C@@]2(c3cc(C#CCCO)ccc31)[C@H](c1ccc(O)cc1)N1[C@H](c3ccccc3)[C@H](c3ccccc3)OC(=O)[C@H]1[C@@H]2C(=O)N1CCN(c2ncccn2)CC1 | -0.788

###

Test: probe aLefty1 binding on compound microarray – biochemical, small-molecule microarray, 635/667 nm fluorescence, primary screen (AID 1153);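 also: score merges spot fluorescence with signal-to-noise ratio from the scanned slide images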
Details: higher = more signal
# if value of composite z-score reaches 0.08, tag Criterion met; if it stays below, tag Criterion not met

Molecule | Answer Label
CCOC(=O)C1=CC[C@H]2C(=O)N(c3ccccc3)C(=O)[C@@H]12 | Criterion not met
C=CCNC(=O)[C@@H]1[C@H]2C(=O)O[C@H](c3ccccc3)[C@H](c3ccccc3)N2[C@H](c2ccc(OCCO)cc2)[C@@]12C(=O)N(C(=O)OCCOC)c1ccc(C#CCNC(N)=O)cc12 | Criterion met
CC(c1ccccc1)C(O)C1C=CC2C(=O)N(c3ccccc3)C(=O)C2N1Nc1ccccc1 (stereo unspecified) | Criterion met
CC(=O)NCCCC[C@@H]1NC(=O)[C@H]2C[C@@H](C(=O)O)[C@@H](c3ccc(O)cc3)N2C1=O | Criterion met
COC(=O)[C@@]1(Cc2ccccc2)[C@H]2c3cc(C(=O)N(C)C)n(Cc4ccc(OC)c(OC)c4)c3C[C@H]2CN1C(=O)c1ccccc1 | Criterion met
CC(C)C(=C=CC[C@H](O)c1ccc(CO)o1)CCO | Criterion not met
COCCOC(=O)N1C(=O)[C@@]2(c3ccccc31)[C@H](C(N)=O)[C@H]1C(=O)O[C@H](c3ccccc3)[C@H](c3ccccc3)N1[C@@H]2c1ccc(O)cc1 | Criterion not met
CCOC(=O)C[C@H]1[C@H](OC(=O)c2cc3ccccc3oc2=O)[C@@H](NC(=O)CC(C)C)c2cc(OCCCO)ccc2N1C(=O)c1ccccc1 | Criterion not met
COC(=O)[C@]1(Cc2ccccc2)N=C(c2ccc(OCCCO)cc2)O[C@@H]1c1ccccc1N=[N+]=[N-] | Criterion not met
Cc1ccc([C@H]2C(C(=O)O)=CCN2S(=O)(=O)c2ccc(C)cc2)cc1 | Criterion not met
CC(C)(C)OC(=O)CC[C@]1(C(N)=O)N=C(c2ccc(OCCCO)cc2)O[C@H]1c1ccccc1 | Criterion met
CN1C(=O)C2C=CC(C(O)c3ccccc3)N(N3CCCCC3)C2C1=O (stereo unspecified) | Criterion met
CN1C(=O)C2C=CC(C(O)c3ccc(F)cc3)N(N(c3ccccc3)c3ccccc3)C2C1=O (stereo unspecified) | Criterion not met
O=C1OCCC=C[C@H]2OC34C=CCN(Cn5nnc6ccccc65)C(=O)[C@H]3N(CCO)C(=O)[C@@H]4C12 (stereo partly specified) | Criterion not met
Cc1ccc(/C=C/C=O)cc1 | Criterion not met
CC(c1ccccc1)C(O)C1C=CC2C(=O)N(C)C(=O)C2N1NC(=O)OC(C)(C)C (stereo unspecified) | Criterion met
O=C1NC(=O)C2C1C=CC(C(O)c1ccc(-c3ccccc3)s1)N2Nc1ccc(Cl)cc1Cl (stereo unspecified) | Criterion not met
COC(=O)c1c2oc(c1C(=O)OC)C(=O)N[C@@H](C(C)C)Cn1cc(nn1)C1(CCCCC1)NC(=O)N[C@H](CO)CC2 | Criterion not met
C=CCNC(=O)[C@H]1[C@@H]2C(=O)O[C@@H](c3ccccc3)[C@@H](c3ccccc3)N2[C@@H](c2ccc(OCCO)cc2)[C@]12C(=O)Nc1ccc(C#CCC(C(=O)OC)C(=O)OC)cc12 | Criterion met
C=CCN1C(=O)[C@]2(O[C@H](CCO)[C@@H]([Si](C)(C)c3ccc(OC)cc3)[C@@H]2C)c2cc(N(C=O)c3ccccc3)ccc21 | Criterion not met
O=C(O)[C@H]1C[C@H]2C(=O)N3CCC[C@H]3C(=O)N2[C@H]1c1ccc(O)cc1 | Criterion not met
NC(=O)[C@@H]1[C@H]2C(=O)O[C@H](c3ccccc3)[C@H](c3ccccc3)N2[C@H](c2ccc(OCCO)cc2)[C@@]12C(=O)Nc1ccc(C#CC3=CCCCC3)cc12 | Criterion met
CCCCC(=C=CC[C@H](O)c1cccc(OCCO)c1)C[C@H](O)c1ccccn1 | Criterion not met
COc1ccc(NN2C(C(O)c3ccc(N(C)C)cc3)C=CC3C(=O)N(C4CCCCC4)C(=O)C32)cc1 (stereo unspecified) | Criterion met
O=C1OCCC=C[C@H]2OC34C=CCN(c5ccc(Cl)cc5)C(=O)[C@H]3N(CCCO)C(=O)[C@@H]4C12 (stereo partly specified) | Criterion not met
C=CCC(OC(C)=O)[C@@H]1[C@@H](N(Cc2ccc(-c3cccc(C(F)(F)F)c3)o2)C(=O)c2cccc3ccccc23)c2cc(OCCCO)ccc2N1C(=O)Cc1ccc2ccccc2c1 (stereo partly specified) | Criterion not met
COCCCNC(=O)[C@@]1(Cc2ccccc2CN=[N+]=[N-])N=C(c2ccc(OCCCO)cc2)O[C@H]1c1ccccc1CN=[N+]=[N-] | Criterion met
CN(C)CCCCCCNC(=O)[C@@H]1C[C@@H]2C(=O)N[C@@H](CCCC[N+](C)(C)C)C(=O)N2[C@@H]1c1ccc(O)cc1 | Criterion not met
Cc1ccc(S[C@]2(C(=O)O)CC(=O)N(Cc3ccccc3C(F)(F)F)[C@@H]2c2ccc(CO)cc2I)cc1 | Criterion met
CC(=O)n1cc(C(O)C2C=CC3C(=O)NC(=O)C3N2Nc2ccccn2)c2ccccc21 (stereo unspecified) | Criterion not met
O=C1C2C=CC(C(O)C=Cc3ccc([N+](=O)[O-])cc3)N(Nc3ccccc3F)C2C(=O)N1c1ccccc1 (stereo unspecified) | Criterion met
